Values were extracted from ChEMBL document CHEMBL3217422.

methodSummary: Induction of hemolysis in rat RBC assessed as hemoglobin release at 64 ug/ml after 1 hr by microplate reader analysis
Format: cell-based, Erythrocyte
conditionParameters: red blood cells, read-out: Activity
Below, each entry is listed with its recorded hemolysis at 1 h, 64 ug/ml.
experimentalEndpoint: hemolysis at 1 h, 64 ug/ml

[[record]]
recordsmiles = "CCCCCCCCCCCCCCC(=O)NC[C@H]1O[C@H](O[C@@H]2[C@@H](O)[C@H](O[C@H]3O[C@H](CN)[C@@H](O)C[C@H]3N)[C@@H](N)C[C@H]2N)[C@H](O)[C@@H](N)[C@@H]1O"
valuemeasured = "74.4%"

[[record]]
recordsmiles = "CCCCCCCCCCCCCCCCc1cn(C[C@H]2O[C@H](O[C@@H]3[C@@H](O)[C@H](O[C@H]4O[C@H](CN)[C@@H](O)C[C@H]4N)[C@@H](N)C[C@H]3N)[C@H](O)[C@@H](N)[C@@H]2O)nn1"
valuemeasured = "37.9%"

[[record]]
recordsmiles = "CCCCCCCCCCCCCCc1cn(C[C@H]2O[C@H](O[C@@H]3[C@@H](O)[C@H](O[C@H]4O[C@H](CN)[C@@H](O)C[C@H]4N)[C@@H](N)C[C@H]3N)[C@H](O)[C@@H](N)[C@@H]2O)nn1"
valuemeasured = "74.4%"

[[record]]
recordsmiles = "CCCCCCCCCCCCC(=O)NC[C@H]1O[C@H](O[C@@H]2[C@@H](O)[C@H](O[C@H]3O[C@H](CN)[C@@H](O)C[C@H]3N)[C@@H](N)C[C@H]2N)[C@H](O)[C@@H](N)[C@@H]1O"
valuemeasured = "0%"

[[record]]
recordsmiles = "CCCCCCCCCCCCCCCCSC[C@H]1O[C@H](O[C@@H]2[C@@H](O)[C@H](O[C@H]3O[C@H](CN)[C@@H](O)C[C@H]3N)[C@@H](N)C[C@H]2N)[C@H](O)[C@@H](N)[C@@H]1O"
valuemeasured = "37.9%"

